Task for the reader: assign each of the following molecules its reported inhibition.
- TARGET SYSTEM: UniProt:P50750
- Sequence (P50750 whole entry): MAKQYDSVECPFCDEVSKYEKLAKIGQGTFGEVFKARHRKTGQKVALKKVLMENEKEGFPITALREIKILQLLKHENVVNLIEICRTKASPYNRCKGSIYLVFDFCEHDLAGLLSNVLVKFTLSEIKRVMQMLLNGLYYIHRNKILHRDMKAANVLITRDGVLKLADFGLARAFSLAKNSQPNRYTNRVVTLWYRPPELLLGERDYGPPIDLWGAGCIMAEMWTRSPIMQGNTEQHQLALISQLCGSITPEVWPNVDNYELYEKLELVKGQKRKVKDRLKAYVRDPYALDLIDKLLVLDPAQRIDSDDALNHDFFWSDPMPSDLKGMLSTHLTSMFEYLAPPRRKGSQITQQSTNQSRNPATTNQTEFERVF
- MEASUREMENT DESCRIPTION: Inhibition of CDK9 in human PC3 cell lysates at 10 uM using desthiobiotin-tagged ATP probe AX9989 followed by trypsinization by LC/MS analysis
- COND: PC-3

1. O=C(O)c1ccc2nc(N[C@H]3CC[C@H](O)CC3)c3nccn3c2c1; 97.9%

Would you be so kind as to report inhibition for each listed record?
1. C[C@H](NC(=O)c1ccc2nc(N[C@H]3CC[C@H](O)CC3)c3nccn3c2c1)c1ccccc1
2. NC(=O)c1ccc2nc(N[C@H]3CC[C@H](O)CC3)c3nccn3c2c1
3. CC(C)(NC(=O)c1ccc2nc(N[C@H]3CC[C@H](O)CC3)c3nccn3c2c1)c1ccccc1
4. CC[C@@H](NC(=O)c1ccc2nc(N[C@H]3CC[C@H](O)CC3)c3nccn3c2c1)c1ccccc1
5. C[C@@H](NC(=O)c1ccc2nc(N[C@H]3CC[C@H](O)CC3)c3nccn3c2c1)c1ccccc1
6. O=C(NC1(c2ccccc2)CCC1)c1ccc2nc(N[C@H]3CC[C@H](O)CC3)c3nccn3c2c1

Out:
1. < 35%
2. 98.6%
3. < 35%
4. < 35%
5. 42%
6. 49.8%

Give inhibition for each of the items listed below.
1. O=C(NC1(Cc2ccc(F)cc2)CC1)c1ccc2nc(N[C@H]3CC[C@H](O)CC3)c3nccn3c2c1
2. O=C(NC1(c2ccc(F)cc2)CC1)c1ccc2nc(N[C@H]3CC[C@H](O)CC3)c3nccn3c2c1

Out:
1: < 35%; 2: < 35%

---

- TARGET SYSTEM: Serine/threonine-protein kinase Nek8 (Homo sapiens)
- Sequence (whole entry): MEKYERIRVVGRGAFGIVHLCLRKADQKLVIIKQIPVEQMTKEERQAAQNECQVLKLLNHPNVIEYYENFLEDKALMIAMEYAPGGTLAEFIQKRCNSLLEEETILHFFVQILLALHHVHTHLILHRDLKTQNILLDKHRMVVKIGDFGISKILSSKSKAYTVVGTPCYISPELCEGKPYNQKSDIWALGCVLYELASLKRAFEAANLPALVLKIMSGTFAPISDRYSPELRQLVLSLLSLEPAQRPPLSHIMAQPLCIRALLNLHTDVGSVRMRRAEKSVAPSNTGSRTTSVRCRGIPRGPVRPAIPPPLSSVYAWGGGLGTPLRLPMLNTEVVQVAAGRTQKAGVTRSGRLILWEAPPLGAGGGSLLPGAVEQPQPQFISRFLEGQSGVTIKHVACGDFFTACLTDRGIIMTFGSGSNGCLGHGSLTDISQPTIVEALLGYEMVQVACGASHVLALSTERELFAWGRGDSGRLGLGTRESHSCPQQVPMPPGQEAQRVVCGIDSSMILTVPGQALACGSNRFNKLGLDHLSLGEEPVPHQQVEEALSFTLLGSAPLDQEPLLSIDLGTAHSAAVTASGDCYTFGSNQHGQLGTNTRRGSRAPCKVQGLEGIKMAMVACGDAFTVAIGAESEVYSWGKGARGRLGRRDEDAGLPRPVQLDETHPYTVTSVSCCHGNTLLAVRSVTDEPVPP
- MEASUREMENT DESCRIPTION: Inhibition of NEK8 in human PC3 cell lysates at 10 uM using desthiobiotin-tagged ATP probe AX9989 followed by trypsinization by LC/MS analysis
- COND: PC-3
Please respond with reported inhibition for every item in the list.

Return reported inhibition values for all items listed beneath this line.
1. CCC[C@@H](NC(=O)c1ccc2nc(N[C@H]3CC[C@H](O)CC3)c3nccn3c2c1)c1ccccc1
2. O=C(NC1(Cc2ccc(F)cc2)CC1)c1ccc2nc(N[C@H]3CC[C@H](O)CC3)c3nccn3c2c1

Out:
1. < 35%
2. < 35%

---

Could you please report measured inhibition for the items listed next?
- TARGET SYSTEM: Microtubule-associated serine/threonine-protein kinase 3 (Homo sapiens, UniProt O60307)
- Sequence (O60307 whole entry): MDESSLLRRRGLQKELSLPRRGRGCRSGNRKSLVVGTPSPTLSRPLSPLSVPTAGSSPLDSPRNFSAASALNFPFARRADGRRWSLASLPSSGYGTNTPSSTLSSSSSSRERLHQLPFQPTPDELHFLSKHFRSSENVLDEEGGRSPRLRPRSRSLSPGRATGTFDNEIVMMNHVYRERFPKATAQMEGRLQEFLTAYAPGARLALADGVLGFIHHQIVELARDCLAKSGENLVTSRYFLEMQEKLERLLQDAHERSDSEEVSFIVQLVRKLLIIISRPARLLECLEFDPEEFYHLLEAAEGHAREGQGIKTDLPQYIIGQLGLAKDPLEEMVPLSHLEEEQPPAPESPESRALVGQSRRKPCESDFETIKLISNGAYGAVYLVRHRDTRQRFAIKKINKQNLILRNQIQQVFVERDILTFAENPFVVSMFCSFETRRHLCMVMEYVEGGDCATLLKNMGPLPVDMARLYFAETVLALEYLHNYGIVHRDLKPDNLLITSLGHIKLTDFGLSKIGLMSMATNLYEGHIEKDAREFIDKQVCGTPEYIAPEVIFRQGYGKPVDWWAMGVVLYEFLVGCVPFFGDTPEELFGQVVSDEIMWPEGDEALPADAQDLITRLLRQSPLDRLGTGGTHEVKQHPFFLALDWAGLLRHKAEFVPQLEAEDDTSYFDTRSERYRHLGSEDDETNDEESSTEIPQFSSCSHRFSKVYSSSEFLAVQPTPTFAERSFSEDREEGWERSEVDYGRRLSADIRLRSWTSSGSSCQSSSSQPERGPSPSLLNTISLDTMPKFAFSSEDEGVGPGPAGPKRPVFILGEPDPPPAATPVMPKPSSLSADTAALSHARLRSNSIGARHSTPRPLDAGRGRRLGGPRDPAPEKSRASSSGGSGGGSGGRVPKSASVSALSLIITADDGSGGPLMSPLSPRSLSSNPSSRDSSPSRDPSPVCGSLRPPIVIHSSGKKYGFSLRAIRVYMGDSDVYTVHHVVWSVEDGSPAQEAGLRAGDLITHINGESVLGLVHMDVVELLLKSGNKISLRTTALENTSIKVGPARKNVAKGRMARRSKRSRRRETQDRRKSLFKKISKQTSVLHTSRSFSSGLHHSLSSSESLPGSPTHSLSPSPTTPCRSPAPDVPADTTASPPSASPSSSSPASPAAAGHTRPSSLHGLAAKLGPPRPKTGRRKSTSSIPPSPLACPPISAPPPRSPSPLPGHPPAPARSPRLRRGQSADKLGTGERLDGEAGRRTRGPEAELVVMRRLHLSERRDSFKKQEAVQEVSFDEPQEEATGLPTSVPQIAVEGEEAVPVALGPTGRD
- MEASUREMENT DESCRIPTION: Inhibition of MAST3 in human PC3 cell lysates at 10 uM using desthiobiotin-tagged ATP probe AX9989 followed by trypsinization by LC/MS analysis
- COND: PC-3
Numbers only, in %.

1. CC(C)(NC(=O)c1ccc2nc(N[C@H]3CC[C@H](O)CC3)c3nccn3c2c1)c1ccccc1; 99.3

Hello, I would appreciate it if you could give inhibition for each entry below.
1. CCC[C@@H](NC(=O)c1ccc2nc(N[C@H]3CC[C@H](O)CC3)c3nccn3c2c1)c1ccccc1
2. O=C(N[C@H](CO)c1ccccc1)c1ccc2nc(N[C@H]3CC[C@H](O)CC3)c3nccn3c2c1
3. O=C(NC1(c2ccccc2)CCC1)c1ccc2nc(N[C@H]3CC[C@H](O)CC3)c3nccn3c2c1
4. CC[C@@H](NC(=O)c1ccc2nc(N[C@H]3CC[C@H](O)CC3)c3nccn3c2c1)c1ccccc1
5. O=C(NC1(c2ccc(F)cc2)CC1)c1ccc2nc(N[C@H]3CC[C@H](O)CC3)c3nccn3c2c1

Out:
1. 90.2
2. 97.9
3. 99.2
4. 96.2
5. 97.6

---

- TARGET SYSTEM: Hepatocyte growth factor receptor (Homo sapiens)
- MEASUREMENT DESCRIPTION: Inhibition of MET in human PC3 cell lysates at 10 uM using desthiobiotin-tagged ATP probe AX9989 followed by trypsinization by LC/MS analysis
- COND: PC-3
ENDPOINT: inhibition

1. C[C@@H](NC(=O)c1ccc2nc(N[C@H]3CC[C@H](O)CC3)c3nccn3c2c1)c1ccccc1; < 35%
2. CC(C)(NC(=O)c1ccc2nc(N[C@H]3CC[C@H](O)CC3)c3nccn3c2c1)c1ccccc1; < 35%

API: the following record is the query input.
In: inhibition lookup needed for CC[C@@H](NC(=O)c1ccc2nc(N[C@H]3CC[C@H](O)CC3)c3nccn3c2c1)c1ccccc1 , thanks.
Out: < 35%

---

- TARGET SYSTEM: Dual specificity mitogen-activated protein kinase kinase 4 (Homo sapiens) (UniProt P45985)
- Sequence (P45985 whole entry): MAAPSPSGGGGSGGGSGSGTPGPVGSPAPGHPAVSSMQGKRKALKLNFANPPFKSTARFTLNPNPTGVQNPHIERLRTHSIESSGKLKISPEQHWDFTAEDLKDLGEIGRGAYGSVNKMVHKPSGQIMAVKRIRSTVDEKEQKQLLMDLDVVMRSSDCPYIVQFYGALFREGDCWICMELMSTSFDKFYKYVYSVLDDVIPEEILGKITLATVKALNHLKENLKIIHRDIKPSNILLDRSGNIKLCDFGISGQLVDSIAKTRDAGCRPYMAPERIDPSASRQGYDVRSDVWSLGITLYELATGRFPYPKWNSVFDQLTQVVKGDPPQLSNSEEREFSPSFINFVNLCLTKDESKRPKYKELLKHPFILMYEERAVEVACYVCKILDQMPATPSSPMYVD
- MEASUREMENT DESCRIPTION: Inhibition of MAP2K4 in human PC3 cell lysates at 10 uM using desthiobiotin-tagged ATP probe AX9989 followed by trypsinization by LC/MS analysis
- COND: PC-3
For each of the compounds below, state its inhibition.

Take a look at these entries with their results.
1. O=C(N[C@H](CO)c1ccccc1)c1ccc2nc(N[C@H]3CC[C@H](O)CC3)c3nccn3c2c1; < 35%
2. CC[C@@H](NC(=O)c1ccc2nc(N[C@H]3CC[C@H](O)CC3)c3nccn3c2c1)c1ccccc1; < 35%
3. C[C@H](NC(=O)c1ccc2nc(N[C@H]3CC[C@H](O)CC3)c3nccn3c2c1)c1ccccc1; < 35%
4. C[C@@H](NC(=O)c1ccc2nc(N[C@H]3CC[C@H](O)CC3)c3nccn3c2c1)c1ccccc1; < 35%
5. NC(=O)c1ccc2nc(N[C@H]3CC[C@H](O)CC3)c3nccn3c2c1; < 35%

# per-item lookup of inhibition; items listed below
1. CCC[C@@H](NC(=O)c1ccc2nc(N[C@H]3CC[C@H](O)CC3)c3nccn3c2c1)c1ccccc1
2. O=C(NC1(Cc2ccc(F)cc2)CC1)c1ccc2nc(N[C@H]3CC[C@H](O)CC3)c3nccn3c2c1
3. O=C(NC1(c2ccccc2)CCC1)c1ccc2nc(N[C@H]3CC[C@H](O)CC3)c3nccn3c2c1

Out:
["< 35%", "< 35%", "< 35%"]

Answer for every listed entry: what is its inhibition? The entries follow.
1. O=C(NC1(c2ccc(F)cc2)CC1)c1ccc2nc(N[C@H]3CC[C@H](O)CC3)c3nccn3c2c1
2. O=C(NC1(c2ccccc2)CC1)c1ccc2nc(N[C@H]3CC[C@H](O)CC3)c3nccn3c2c1
3. O=C(O)c1ccc2nc(N[C@H]3CC[C@H](O)CC3)c3nccn3c2c1
4. CC(C)(NC(=O)c1ccc2nc(N[C@H]3CC[C@H](O)CC3)c3nccn3c2c1)c1ccccc1

Out:
1: < 35%; 2: < 35%; 3: < 35%; 4: < 35%

---

- TARGET SYSTEM: Serine/threonine-protein kinase 3 (Homo sapiens) (UniProt Q13188)
- Sequence (whole entry): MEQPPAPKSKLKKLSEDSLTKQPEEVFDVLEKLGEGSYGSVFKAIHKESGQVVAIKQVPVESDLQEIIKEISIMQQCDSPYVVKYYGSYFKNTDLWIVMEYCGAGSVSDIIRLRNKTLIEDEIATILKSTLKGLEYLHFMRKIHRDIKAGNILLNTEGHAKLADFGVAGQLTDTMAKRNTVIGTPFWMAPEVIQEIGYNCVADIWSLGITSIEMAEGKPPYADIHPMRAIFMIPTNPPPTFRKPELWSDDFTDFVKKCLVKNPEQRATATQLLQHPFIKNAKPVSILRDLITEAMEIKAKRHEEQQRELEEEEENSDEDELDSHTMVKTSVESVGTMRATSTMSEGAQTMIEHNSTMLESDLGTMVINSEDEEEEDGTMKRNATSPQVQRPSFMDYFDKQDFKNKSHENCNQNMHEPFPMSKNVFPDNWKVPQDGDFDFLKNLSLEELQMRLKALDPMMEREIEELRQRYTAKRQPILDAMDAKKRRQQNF
- MEASUREMENT DESCRIPTION: Inhibition of MST2 in human PC3 cell lysates at 10 uM using desthiobiotin-tagged ATP probe AX9989 followed by trypsinization by LC/MS analysis
- COND: PC-3
ENDPOINT: inhibition

// known answers, use as guide
1) CC[C@@H](NC(=O)c1ccc2nc(N[C@H]3CC[C@H](O)CC3)c3nccn3c2c1)c1ccccc1; < 35%
2) NC(=O)c1ccc2nc(N[C@H]3CC[C@H](O)CC3)c3nccn3c2c1; < 35%

Okay, now this molecule:
In: Need inhibition, item C[C@@H](NC(=O)c1ccc2nc(N[C@H]3CC[C@H](O)CC3)c3nccn3c2c1)c1ccccc1
Out: < 35%
